Recorded values, source PubChem BioAssay.

biological target: Dihydroorotate dehydrogenase (quinone), mitochondrial (Plasmodium falciparum (isolate 3D7)); test: inhibition of P. falciparum DHODH – biochemical, C-terminal His tag, absorbance 600 nm, primary screen (AID 1175); settings: PfDHODH enzyme, DCIP absorbance 600 nm; higher = more signal, called active from +8 up or from −8 down;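 note: recombinant parasite enzyme with a five histidine tag at its C terminus; test concentration not given here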
Reported Metric: composite z-score
One number for each entry.

These recorded examples may help you get a feel for the data.
COCCn1c(C(=O)N(C)C)cc2c1C[C@H]1CN(C(=O)c3ccccc3)[C@@](Cc3ccc(OC)cc3)(C(=O)OC)[C@@H]21 :: -0.271
CC(C)N1C(=O)C[C@@](C(=O)NCCN2CCOCC2)(c2ccc([N+](=O)[O-])cc2)[C@H]1c1ccc(CO)cc1 :: -0.1
CCOC(=O)C1=CC[C@@H](c2ccccc2)N(S(=O)(=O)c2ccc(C)cc2)[C@H]1c1ccccc1I :: -0.158

With those in mind, consider the next molecule.
Short answer for "COc1ccc([Si](C)(C)[C@H]2[C@H](CCO)O[C@@]3(C(=O)N(Cc4ccc(NC(=O)[C@H](C)O)cc4)c4ccccc43)[C@@H]2C)cc1" : composite z-score was -0.0575

---

test: compound effects on differentiated 3T3-L1 adipocyte viability – cell-based, 3T3-L1 adipocytes, calcein-AM fluorescence, 48 h, basal, profiling panel (AID 1163); details: 3T3-L1 adipocytes viability, higher = more signal; note: test concentration not given here
z-score strictly under 0.5 means T; at 0.5 or over means F.

Use the examples below as a reference point.
CCOC(=O)C1=CC[C@@H](c2ccc(OC)cc2)N(S(=O)(=O)c2ccc(C)cc2)[C@H]1c1ccc(C)cc1 :: T
CC(C)[Si](C#CCCc1ccccc1)(O[C@H](c1ccccc1)c1cn(Cc2ccccc2)nn1)C(C)C :: T
CN(C)c1ccc(C(O)C2C=CC3C(=O)N(Cc4ccccc4)C(=O)C3N2n2cnnc2)cc1 (configuration not stated) :: T
COC(=O)[C@@]1(Cc2ccc(OC)cc2)[C@H]2c3cc(C(=O)N4CCCC4)n(Cc4c(CO)[nH]cc(C)c4=O)c3C[C@H]2CN1C(=O)c1ccccc1 :: T
CN(C)CCCNC(=O)[C@@H]1c2ccccc2C(=O)N(Cc2ccccc2C(F)(F)F)[C@H]1c1ccc(CO)cc1 :: F
COc1ccc([Si](C)(C)[C@H]2[C@H](CC(=O)N3Cc4ccccc4C[C@H]3CO)O[C@@]3(C(=O)N(c4ccccc4)c4ccccc43)[C@@H]2C)cc1 :: F

Here is another compound to look at.
Ask: Does the reported z-score of CC(C)C[C@H]1NC(=O)C([C@@H](C)OCc2ccccc2)NC(=O)[C@@]23C(=O)N[C@@H](Cc4ccccc4)C2[C@H](C)[C@@]2(C)O[C@H]2C3/C=C/C/C=C\CNC1=O (some centres not stated) stay below 0.5?
Reply: F

---

assay: S6 kinase pathway phospho-S6 level changes – cell-based, A549, cytoblot, luminescence, serum-stimulated, primary screen (AID 1158); details: 5 h, higher = more signal;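 note: serum-stimulated A549 lung adenocarcinoma cells; signal is phosphorylated S6 detected by cytoblot immunostaining with HRP secondary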
Reported Metric: z-score
Give bare numbers.

The following molecules each have a reported value; give each one's z-score.
1. COCCOC(=O)N1C(=O)[C@@]2(c3cc(C#CCNC(N)=O)ccc31)[C@H](C(=O)Nc1nc3ccccc3s1)[C@H]1C(=O)O[C@H](c3ccccc3)[C@H](c3ccccc3)N1[C@@H]2c1ccccc1OCCO
2. C=CC[C@]1(C(=O)NCC(O)CO)COC(c2ccc(OCCCO)cc2)=N1 (stereo partly drawn)

Reply:
[2.18, 0.18]

The following molecules each have a reported value; give each one's z-score.
1. COCC(=C=CC[C@H](O)c1ccccc1OCCO)C[C@H](O)COCc1ccccc1
2. COCCCNC(=O)[C@@H]1c2ccccc2C(=O)N(Cc2ccc(OC(F)(F)F)cc2)[C@H]1c1ccc(CO)cc1
3. C=C(COC)/C(=C/C[C@@H](OC(C)=O)c1ccccc1OCCO)c1cnc2ccccc2c1
4. NC(=O)N1C(=O)C2C(C1=O)C1C=C(CCCO)C2C(c2ccc(CN3CCCC3)cc2)N1Cc1cc2c(cc1Br)OCO2 (stereo not drawn)
5. N#Cc1ccc(C(O)C2C=CC3C(=O)NC(=O)C3N2Nc2ccc(Cl)cc2Cl)cc1 (stereo not drawn)

Reply:
1: -0.408; 2: 0.0296; 3: 0.413; 4: 0.106; 5: -1.29

Short answer for "O=C1N(Cc2ccccc2)c2ccccc2C[C@@]12COC(c1ccc(OCCCO)cc1)=N2" : z-score was 0.255
